Ref: patent US12421210B2

target-under-test: human NAMPT enzyme (His-hNAMPT) (Homo sapiens (Human))
Sequence (P43490 whole entry): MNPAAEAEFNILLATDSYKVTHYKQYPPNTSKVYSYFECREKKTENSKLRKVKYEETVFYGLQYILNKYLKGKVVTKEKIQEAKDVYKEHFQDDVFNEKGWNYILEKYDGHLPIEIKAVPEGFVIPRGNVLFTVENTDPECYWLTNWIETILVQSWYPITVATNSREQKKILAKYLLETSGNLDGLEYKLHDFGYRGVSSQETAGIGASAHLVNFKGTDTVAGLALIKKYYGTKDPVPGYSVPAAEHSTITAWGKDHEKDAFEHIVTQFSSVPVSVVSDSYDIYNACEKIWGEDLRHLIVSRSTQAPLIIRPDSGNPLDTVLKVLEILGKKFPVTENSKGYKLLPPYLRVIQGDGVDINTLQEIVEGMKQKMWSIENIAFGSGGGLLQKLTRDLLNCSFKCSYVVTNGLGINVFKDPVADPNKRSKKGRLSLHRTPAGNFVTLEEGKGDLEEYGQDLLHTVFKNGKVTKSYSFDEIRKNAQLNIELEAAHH
measurement-notes: NAMPT enzymatic inhibition assay (fluorescence, NADH product)
Format: biochemical
particulars: [HDB]; read-out: NAMPT IC50 (μM) [HDB]
Procedure: The compounds were then diluted 20 fold in an intermediate dilution to 5% DMSO and water. […] Fluorescence intensity was measured at an excitation of 340 nm and an emission of 460 nm using a Tecan Infinite M1000 microplate reader. The fluorescence values indicated increase of NADH product. Enzyme activity assay was performed in duplicate at each concentration. The fluorescence data was analyzed and compared. […]
measurement-name: IC50

INPUT: # lookup: IC50 of O=C(/C=C/c1cccnc1)NCC[C@@H]1[C@H]2CN(c3cccc(Cl)c3)C[C@@H]12 [Example 145]
OUTPUT: 0.01 to 0.49 µM

INPUT: Continue with O=C(/C=C/c1cccnc1)NCC[C@@H]1[C@H]2CN(c3nc(OCc4ccccc4)ncc3F)C[C@@H]12 [Example 308]
OUTPUT: < 0.01 µM

INPUT: Continue with O=C(NCC[C@@H]1[C@H]2CN(c3nc(Cl)ncc3F)C[C@@H]12)c1ccc2ncnn2c1 [Example 217]
OUTPUT: 0.01 to 0.49 µM

INPUT: Continue with O=C(/C=C/c1cccnc1)NCC[C@@H]1[C@H]2CN(c3ccc(Cl)c(Cl)c3)C[C@@H]12 [Example 147]
OUTPUT: < 0.01 µM
